Below, each entry is listed with its recorded mass density.
details: 298.15 K; 101.33 kPa; Liquid; Vibrating tube method

TEST SMILES	RESULT UNITS	mass density
CCCC(C)=O	kg/m3	801.522
CCC(C)=O	kg/m3	799.969
CCCCNCCCC	kg/m3	755.528
CCCCCC(C)=O	kg/m3	811.162
CCCNCCC	kg/m3	733.723
CC(C)=O	kg/m3	785.094
